Measured values drawn from paper PMC7795425 for this set.

List of melting point values.
Where a name gives a salt, the structure may show the parent alone.
readout.kind: melting point

1) C[C@H]([C@@H](O)[C@H](O)C(=O)N1CCCCC1)[C@H]1CC[C@H]2[C@@H]3CC(=O)[C@H]4C[C@H](O)[C@H](O)C[C@]4(C)[C@H]3CC[C@]12C [20d] ... > 200 °C (dec.)
2) C[C@H]([C@@H](O)[C@H](O)C(=O)N1CCCC1)[C@H]1CC[C@H]2[C@@H]3CC(=O)[C@H]4C[C@H](O)[C@H](O)C[C@]4(C)[C@H]3CC[C@]12C [20c] ... > 200 °C (dec.)
3) CCN(CC)C[C@@H](C)[C@H]1CC[C@H]2[C@@H]3CC(=O)[C@H]4C[C@H](O)[C@H](O)C[C@]4(C)[C@H]3CC[C@]12C [15b] ... > 190 °C (dec.)
4) CCN(CC)C(=O)[C@@H](O)[C@H](O)[C@@H](C)[C@H]1CC[C@H]2[C@@H]3CC(=O)[C@H]4C[C@H](O)[C@H](O)C[C@]4(C)[C@H]3CC[C@]12C [20b] ... > 160 °C (dec.)
5) C[C@H](C(=O)N1CCCCC1)[C@H]1CC[C@H]2[C@@H]3CC(=O)[C@H]4C[C@H](O)[C@H](O)C[C@]4(C)[C@H]3CC[C@]12C [8d] ... > 230 °C (dec.)
6) CCN(CC)C[C@H](O)[C@H](O)[C@@H](C)[C@H]1CC[C@H]2[C@@H]3CC(=O)[C@H]4C[C@H](O)[C@H](O)C[C@]4(C)[C@H]3CC[C@]12C.Cl [22b] ... > 250 °C (dec.)
7) C[C@H](CN(C)C)[C@H]1CCC2C3CC(=O)[C@H]4C[C@H](O)[C@H](O)C[C@]4(C)C3CC[C@@]21C (stereo partly drawn) (as salt: chloride) [16a] ... > 290 °C (dec.)
8) C[C@H](C(=O)N(C)C)[C@H]1CC[C@H]2[C@@H]3CC(=O)[C@H]4C[C@H](O)[C@H](O)C[C@]4(C)[C@H]3CC[C@]12C [8a] ... > 230 °C (dec.)
9) C[C@H](CN1CCOCC1)[C@H]1CC[C@H]2[C@@H]3CC(=O)[C@H]4C[C@H](O)[C@H](O)C[C@]4(C)[C@H]3CC[C@]12C [15e] ... > 210 °C (dec.)
10) CCN(CC)C[C@@H](C)[C@H]1CCC2C3CC(=O)[C@H]4C[C@H](O)[C@H](O)C[C@]4(C)C3CC[C@@]21C (stereo partly drawn) (as salt: chloride) [16b] ... > 270 °C (dec.)
11) C[C@H]([C@@H](O)[C@H](O)C(=O)N(C)C)[C@H]1CC[C@H]2[C@@H]3CC(=O)[C@H]4C[C@H](O)[C@H](O)C[C@]4(C)[C@H]3CC[C@]12C [20a] ... > 210 °C (dec.)
12) C[C@H](C(=O)N1CCOCC1)[C@H]1CC[C@H]2[C@@H]3CC(=O)[C@H]4C[C@H](O)[C@H](O)C[C@]4(C)[C@H]3CC[C@]12C [8e] ... > 270 °C (dec.)
13) C[C@H](CN1CCCCC1)[C@H]1CCC2C3CC(=O)[C@H]4C[C@H](O)[C@H](O)C[C@]4(C)C3CC[C@@]21C (stereo partly drawn) (as salt: chloride) [16d] ... > 280 °C (dec.)
14) C[C@H]([C@@H](O)[C@@H](O)CN1CCOCC1)[C@H]1CC[C@H]2[C@@H]3CC(=O)[C@H]4C[C@H](O)[C@H](O)C[C@]4(C)[C@H]3CC[C@]12C.Cl [22e] ... > 270 °C (dec.)
15) C[C@H](CN1CCOCC1)[C@H]1CCC2C3CC(=O)[C@H]4C[C@H](O)[C@H](O)C[C@]4(C)C3CC[C@@]21C (stereo partly drawn) (as salt: chloride) [16e] ... > 240 °C (dec.)
16) CCN(CC)C(=O)[C@@H](C)[C@H]1CC[C@H]2[C@@H]3CC(=O)[C@H]4C[C@H](O)[C@H](O)C[C@]4(C)[C@H]3CC[C@]12C [8b] ... > 200 °C (dec.)
17) C[C@H](CN1CCCC1)[C@H]1CCC2C3CC(=O)[C@H]4C[C@H](O)[C@H](O)C[C@]4(C)C3CC[C@@]21C (stereo partly drawn) (as salt: chloride) [16c] ... > 260 °C (dec.)
18) C[C@H]([C@@H](O)[C@@H](O)CN1CCCC1)[C@H]1CC[C@H]2[C@@H]3CC(=O)[C@H]4C[C@H](O)[C@H](O)C[C@]4(C)[C@H]3CC[C@]12C.Cl [22c] ... > 250 °C (dec.)
